# test_target: glycoprotein B of HSV-1 (gB-1) (Human herpesvirus 1, UniProt P10211)
# assay_info: Luminex multiplex assay, binding to gB-1
# condition_notes: Table 3 summary
measurement_label: Target antigens

Memo: HSV010-14: gB-1 specific mouse monoclonal IgG; IgH SEQ ID NO: 56, IgL SEQ ID NO: 58 (antibody, V domains shown, HSV010-14 heavy chain; HSV010-14 light chain) VH: QVQLQQPGAELVKPGASVKLSCKASGYTFTSYWIHWVKQRPGQGLEWIGMIHPNSGIAHYSEKFKSTATLTVDKSSSTAYMQLSSLTSEDSSVYYCARGSSSGSAWFAYWGQGTLVTVSAA VL: DIQMTQSSSYLSVSLGGRVTITCKAGDHINNWLAWYQQKPGNAPRLLISGATSLETGVPSRFSGSGSGKDYTLSITSLQTEDVATYYCQQYWSTPLTFGAGTKLELKR , reported Target antigens: gB
